Catalogue of logD at 24 h readings, one per entry.
assay: log D7.4 measurement; format: physicochemical; conditions: pH 7.4; read-out: logD7.4
Reply with the value as a number alone.

Answered cases to consult:
COMPOUND	logD at 24 h
CC1=C(C(=O)Nc2cc(Cl)ccc2Cl)C(C2CC2)C2=C(CCCC2=O)N1 (centres unmarked)	3.73
CC1=C(C(=O)Nc2cc(Cl)ccc2Cl)C(c2nccs2)C2=C(CCCC2=O)N1 (centres unmarked)	3.39
CCCC1C(C(=O)Nc2cc(OC)ccc2Cl)=C(C)NC2=C1C(=O)CCC2 (centres unmarked)	3.07
CC1=C(C(=O)Nc2cc(Cl)ccc2Cl)C(c2cscn2)C2=C(CCCC2=O)N1 (centres unmarked)	3.28
CC1=C(C(=O)Nc2cc(Cl)ccc2Cl)C(c2ncco2)C2=C(CCCC2=O)N1 (centres unmarked)	2.59

[ask] logD at 24 h for CCCC1C(C(=O)Nc2ccccc2Cl)=C(C)NC2=C1C(=O)CCC2 (centres unmarked) ?
[reply] 3.22
